experiment: PDA plasma and urine levels at baseline in five clinical studies; type: in vivo, human; conditions: both, human, plasma, AUC0-24h, PDA plasma; Study 1 baseline (no inhibitor), n=12
quantityKind: AUC(0-t)

Looking up `Cc1ncc(CO)c(C(=O)O)c1O` , I found its AUC(0-t) recorded as 86.7 ng·h/mL

====

test: PDA plasma and urine levels at baseline in five clinical studies; format: in vivo, human; conditions: male, human, plasma, AUC0-24h, PDA plasma; Study 5 baseline, males, n=23
quantityKind: AUC(0-t) (ng·h/mL)
# number only, unit ng·h/mL dropped from output

Looking up Cc1ncc(CO)c(C(=O)O)c1O [PDA, Pyridoxic acid] , I found its AUC(0-t) recorded as 74.6

====

experiment: PDA plasma and urine levels at baseline in five clinical studies; assay type: in vivo, human; settings: both, human, plasma, Cmax, PDA plasma; Study 2 baseline, n=12
quantityKind: Cmax (ng/mL)
# number only, unit ng/mL dropped from output

Looking up Cc1ncc(CO)c(C(=O)O)c1O [PDA, Pyridoxic acid] , I found its Cmax recorded as 3.8

====

system: OAT1/3; test: Effect of OAT inhibitors on PDA pharmacokinetics in clinical DDI studies; details: both, human, in vivo, 1000 mg
quantityKind: Cmax (ng/mL)
# number only, unit ng/mL dropped from output

Looking up Cc1ncc(CO)c(C(=O)O)c1O [PDA, Pyridoxic acid] , I found its Cmax recorded as 11.9

====

tested on: OAT1/3; experiment: Effect of OAT inhibitors on PDA pharmacokinetics in clinical DDI studies; settings: both, human, in vivo, 200 mg
quantityKind: Cmax (ng/mL)
# number only, unit ng/mL dropped from output

Here `Cc1ncc(CO)c(C(=O)O)c1O` was tested on OAT1/3, and its Cmax came to 3.9

====

test system: OAT1/3; experiment: Effect of OAT inhibitors on PDA pharmacokinetics in clinical DDI studies; settings: both, human, in vivo, 200 mg
quantityKind: AUC(0-t) (ng·h/mL)
# number only, unit ng·h/mL dropped from output

Looking up `Cc1ncc(CO)c(C(=O)O)c1O` , I found its AUC(0-t) recorded as 72.8

====

system: OAT1/3; experiment: Effect of OAT inhibitors on PDA pharmacokinetics in clinical DDI studies; details: both, human, in vivo, 1000 mg
quantityKind: AUC(0-t) (ng·h/mL)
# number only, unit ng·h/mL dropped from output

Here `Cc1ncc(CO)c(C(=O)O)c1O` was tested on OAT1/3, and its AUC(0-t) came to 235

====

experiment: PDA plasma and urine levels at baseline in five clinical studies; format: in vivo, human; conditions: male, human, plasma, AUC0-24h, PDA plasma baseline; males only, White (37)
quantityKind: AUC(0-t) (ng·h/mL)
# number only, unit ng·h/mL dropped from output

Looking up Cc1ncc(CO)c(C(=O)O)c1O [PDA, Pyridoxic acid] , I found its AUC(0-t) recorded as 78.2

====

experiment: PDA plasma and urine levels at baseline in five clinical studies; format: in vivo, human; settings: male, human, plasma, Cmax, PDA plasma; Study 5 baseline, males, n=23
quantityKind: Cmax (ng/mL)
# number only, unit ng/mL dropped from output

Looking up `Cc1ncc(CO)c(C(=O)O)c1O` , I found its Cmax recorded as 4.6

====

test: PDA plasma and urine levels at baseline in five clinical studies; assay type: in vivo, human; conditions: male, human, urine, CLR, PDA; Japanese males (13)
quantityKind: CL renal (mL/min)
# number only, unit mL/min dropped from output

Looking up Cc1ncc(CO)c(C(=O)O)c1O [PDA, Pyridoxic acid] , I found its CL renal recorded as 546

====

assay: PDA plasma and urine levels at baseline in five clinical studies; format: in vivo, human; conditions: both, human, plasma, predose (0 min) plasma concentration, mean, PDA; across the five studies
quantityKind: concentration at 0 min (ng/mL)
# number only, unit ng/mL dropped from output

Looking up `Cc1ncc(CO)c(C(=O)O)c1O` , I found its concentration at 0 min recorded as 3.3
